Just for reference, PubChem BioAssay AID1918942 is where these values come from.

Tested on: 743489-274-T-PDC complex spheroid viability;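 also: spheroids exposed to compounds for 7 days before readout; 100% = DMSO vehicle control wells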
Test: Anticancer human tumor 743489-274-T-PDC patient-derived renal cell carcinoma cell line growth inhibition
Conditions: second compound 10 µM; first compound 0.3 µM; stronger effect = lower value
Description: Multicellular complex tumor spheroid response to LSD1 Inhibitor Iadademstat in combination with a variety of drugs and investigational agents in selected tumor cell lines The current study was undertaken to assess response to LSD1 inhibitors in combination with standard-of-care drugs and investigational agents in solid tumor complex spheroid models as well as in the K-562 leukemia. […] Compounds. […] If the clinical Cmax for an agent had not been determined, the highest concentration tested was 10 microM. […]
outcome-measure: viability, T/C

// solved cases for viability, T/C follow
The measured viability, T/C associated with CCc1c2c(nc3ccc(O)cc13)-c1cc3c(c(=O)n1C2)COC(=O)[C@]3(O)CC + NC1CC1c1ccc(-c2cccc(O)c2)cc1 reads 38.8%

Looking up COc1cc(C2c3cc4c(cc3C(OC3OC5COC(C)OC5C(O)C3O)C3COC(=O)C23)OCO4)cc(OC)c1O (centres undefined) + NC1CC1c1ccc(-c2cccc(O)c2)cc1 , I found its viability, T/C recorded as 83.9%

Short answer for Nc1ccccc1NC(=O)c1ccc(CNC(=O)OCc2cccnc2)cc1 + NC1CC1c1ccc(-c2cccc(O)c2)cc1 : viability, T/C was 70.1%

Now consider a different compound.
The compound listed as O=C(C=Cc1cccc(S(=O)(=O)Nc2ccccc2)c1)NO + NC1CC1c1ccc(-c2cccc(O)c2)cc1 has a reported viability, T/C of 81.4%
